From: PubChem BioAssay AID1919006

- System: 885512-296-R-J2-PDC complex spheroid growth, % test/control
- experimentNotes: Anticancer human tumor 885512-296-R-J2-PDC patient-derived breast carcinoma cell line growth inhibition [AhR]
- testSettings: second compound 10 µM; first compound 0.01 µM; hits give low values
For each of the compounds below, state its viability, T/C.
Numbers only, in %.

// below: answered compounds
[[record]]
compound = "CC[C@@]1(O)C(=O)OCc2c1cc1n(c2=O)Cc2cc3c(CN(C)C)c(O)ccc3nc2-1 + Cc1cncc(-c2nc(NCCc3c[nH]c4ccccc34)c3ncn(C(C)C)c3n2)c1"
measuredon = "885512-296-R-J2-PDC complex spheroid growth, % test/control"
endpointname = "viability, T/C"
observedmeasurement = 13.7

[[record]]
compound = "Nc1ncn(C2CC(O)C(CO)O2)c(=O)n1 (stereo unspecified) + Cc1cncc(-c2nc(NCCc3c[nH]c4ccccc34)c3ncn(C(C)C)c3n2)c1"
measuredon = "885512-296-R-J2-PDC complex spheroid growth, % test/control"
endpointname = "viability, T/C"
observedmeasurement = 20.6

[[record]]
compound = "Nc1ncn(C2CC(O)C(CO)O2)c(=O)n1 (stereo unspecified) + Cc1ccccc1N=Nc1ccc(NC(=O)c2ccnn2C)c(C)c1"
measuredon = "885512-296-R-J2-PDC complex spheroid growth, % test/control"
endpointname = "viability, T/C"
observedmeasurement = 58.4

[[record]]
compound = "Cn1ncnc1C1c2n[nH]c(=O)c3cc(F)cc(c23)NC1c1ccc(F)cc1 (stereo unspecified) + Cc1ccccc1N=Nc1ccc(NC(=O)c2ccnn2C)c(C)c1"
measuredon = "885512-296-R-J2-PDC complex spheroid growth, % test/control"
endpointname = "viability, T/C"
observedmeasurement = 47.2

[[record]]
compound = "CC1COCCN1c1cc(-c2ccnn2C)c2ccnc(-c3ccn[nH]3)c2n1 (stereo unspecified) + Cc1cncc(-c2nc(NCCc3c[nH]c4ccccc34)c3ncn(C(C)C)c3n2)c1"
measuredon = "885512-296-R-J2-PDC complex spheroid growth, % test/control"
endpointname = "viability, T/C"
observedmeasurement = 15.6


Checklist item: viability, T/C tested on 885512-296-R-J2-PDC complex spheroid growth, % test/control, entry CC[C@@]1(O)C(=O)OCc2c1cc1n(c2=O)Cc2cc3c(CN(C)C)c(O)ccc3nc2-1 + CC(CO)NC(=O)c1cc(-c2ccc(Cl)cc2)nn(-c2cnn(C)c2)c1=O , value?
46.2

----------
- System: 885512-296-R-J2-PDC complex spheroid growth, % test/control
- experimentNotes: Anticancer human tumor 885512-296-R-J2-PDC cell line growth inhibition [AhR]; active = viability on the fitted dose curve at most 10% of control; inactive = the rest;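 note: spheroids exposed to compounds for seven days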
- testSettings: second compound 1 µM; first compound 0.949 µM
Returns: one label drawn from active, inactive

Past entries and their recorded results:
[[record]]
compound = "CCN(c1cc(-c2ccc(CN3CCOCC3)cc2)cc(C(=O)NCc2c(C)cc(C)[nH]c2=O)c1C)C1CCOCC1 + Cc1ccccc1N=Nc1ccc(NC(=O)c2ccnn2C)c(C)c1"
measuredon = "885512-296-R-J2-PDC complex spheroid growth, % test/control"
labelclass = "inactive"

[[record]]
compound = "O=C(C=Cn1cnc(-c2cc(C(F)(F)F)cc(C(F)(F)F)c2)n1)NNc1cnccn1 + CC(CO)NC(=O)c1cc(-c2ccc(Cl)cc2)nn(-c2cnn(C)c2)c1=O"
measuredon = "885512-296-R-J2-PDC complex spheroid growth, % test/control"
labelclass = "active"

[[record]]
compound = "O=C(C=Cn1cnc(-c2cc(C(F)(F)F)cc(C(F)(F)F)c2)n1)NNc1cnccn1 + Cc1cncc(-c2nc(NCCc3c[nH]c4ccccc34)c3ncn(C(C)C)c3n2)c1"
measuredon = "885512-296-R-J2-PDC complex spheroid growth, % test/control"
labelclass = "active"

[[record]]
compound = "CCN(c1cc(-c2ccc(CN3CCOCC3)cc2)cc(C(=O)NCc2c(C)cc(C)[nH]c2=O)c1C)C1CCOCC1 + Cc1cncc(-c2nc(NCCc3c[nH]c4ccccc34)c3ncn(C(C)C)c3n2)c1"
measuredon = "885512-296-R-J2-PDC complex spheroid growth, % test/control"
labelclass = "inactive"

[[record]]
compound = "O=C(C=Cn1cnc(-c2cc(C(F)(F)F)cc(C(F)(F)F)c2)n1)NNc1cnccn1 + Cc1ccccc1N=Nc1ccc(NC(=O)c2ccnn2C)c(C)c1"
measuredon = "885512-296-R-J2-PDC complex spheroid growth, % test/control"
labelclass = "active"


Could you check what this test reported for CCN(c1cc(-c2ccc(CN3CCOCC3)cc2)cc(C(=O)NCc2c(C)cc(C)[nH]c2=O)c1C)C1CCOCC1 + CC(CO)NC(=O)c1cc(-c2ccc(Cl)cc2)nn(-c2cnn(C)c2)c1=O ?
inactive
